Would you mind telling me the reported Cellular binding assay [RFU] of each entry?
Target: T1, CD27 expressed on the cell surface (HT1080_CD27 cells) (human, UniProt P26842 20-260)
T1 construct: whole, on cells; also called K562_CD27
T1 sequence (looked up): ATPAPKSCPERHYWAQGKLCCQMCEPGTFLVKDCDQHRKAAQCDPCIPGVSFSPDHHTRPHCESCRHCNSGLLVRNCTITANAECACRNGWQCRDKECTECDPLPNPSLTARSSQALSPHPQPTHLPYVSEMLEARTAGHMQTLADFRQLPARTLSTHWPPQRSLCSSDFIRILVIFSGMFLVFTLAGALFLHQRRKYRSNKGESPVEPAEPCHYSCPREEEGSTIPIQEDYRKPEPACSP
Assay: cellular binding assay, HT1080_CD27 cells; note: test concentration or dose not given here
Give bare numbers, in RFU.

Look over these answered cases.
Binder | Recorded value
P018.S.07.A.B05 (antibody, V domains shown, V regions on human Ig constant parts; also called AB27_117) VH: QSLEESGGDLVKPGASLTLTCTASEFSFSNNYYICWVRQAPGKGLEWIACIYVHSGTTDYATWAKGRFTISRTSSTTVTLQMTSLTVADTATYFCARGRSGYYADAFDTWGPGTLVTVSS VL: ALDMTQTPSPVSAAVGGTVTINCQASQSVYNNNNLAWYQQKPGQPPKLLIYLASNLASGVPSRFKGSGSGTQFTLTISEIQSDDAATYYCQGTDSSSGWEHAFGGGTEVVVK | 295
P018.S.03.A.H03 (antibody, V domains shown, V regions on human Ig constant parts; also called AB27_61) VH: QSLEESGGDLVKPEGSLTLTCTASGLDFSSSYWICWVRQAPGKGLEWIACIHAGSSGTTHYATWAKGRFTISKTSSTTVTLQMTSLTAADTATYFCARGAVYGGGSYDNFNLWGPGTLVTVSS VL: AYDMTQTPASVEVAVGGTVTIKCQASQSIGTYLSWYQQKPGQPPKLLIYAASTLASGVQPRFKGSGSGTQFTLTISGVQSDDAATYYCQQGYSADNVANSFGGGTEVVVK | 289

Could you now consider this next binder?
Query: Kindly indicate its recorded Cellular binding assay [RFU]. Item: P018.S.09.A.H03 (antibody, V domains shown, V regions on human Ig constant parts; also called AB27_160) VH: QSLEESGGRLVTPDESLTLTCTVSGFSLSSNAMIWVRQAPGKGLEWIGIIDTGGSAYYASWAKGRFTISKTSTTVDLKITSPTTEDTATYFCARDRYTDSSGYNLWGQGTLVTVSS VL: DIVMTQTPASVEAAVGGTVTIKCQASQSIGASLAWYKQKPGQPPKLLIYSASWLASGVPSRFKGSGSGTEFTLTISDLASADAATYYCQSYYYRSSSGYGYAFGGGTEVVVK
Reply: 268
